Values compiled from the Deep4Chem optical property database.

test: solvent given as SMILES; details: in ClC(Cl)Cl
Measured property: emission maximum (nm)

P: F[B-]1(F)n2c(ccc2-c2ccccc2)C(c2ccc(I)cc2)=C2C=CC(c3ccccc3)=[N+]21
Q: O=C1c2ccccc2NC(c2ccccc2)N1Cc1ccccc1 (centres undefined)
Compare P and Q by numeric emission maximum and name the larger one. Select an item and report its label. P

1: O=C1c2ccccc2C2=Cc3ccccc3B(O)N12
2: Clc1cc(Cl)c([C](c2c(Cl)cc(Cl)cc2Cl)c2c(Cl)cc(-n3c4ccccc4c4ccccc43)cc2Cl)c(Cl)c1
Parameter metric = emission maximum. Return the lower-valued option from 1 and 2 . Please indicate the selected item by its label. 1
(1: 437 nm, 2: 680 nm)

====

test: solvent given as SMILES; details: in ClCCl
Measured property: emission maximum (nm)

Compound string: CC(=O)O[B-]1(OC(C)=O)OC(/C=C/c2ccc(C)cc2)=CC(/C=C/c2ccc(C)cc2)=[O+]1
emission maximum / nm: 492
--
Compound string: CC(C)(C)c1ccc2c(c1)c1cc(C(C)(C)C)ccc1n2-c1ccc(N(c2ccc(-c3ccc(-c4ccc(-c5ccc(N(c6ccc(-n7c8ccc(C(C)(C)C)cc8c8cc(C(C)(C)C)ccc87)cc6)c6ccc(-n7c8ccc(C(C)(C)C)cc8c8cc(C(C)(C)C)ccc87)cc6)cc5)s4)s3)cc2)c2ccc(-n3c4ccc(C(C)(C)C)cc4c4cc(C(C)(C)C)ccc43)cc2)cc1
emission maximum / nm: 494
--
Compound string: Cc1cc2c3ccccc3oc2c2c1c1ccccc1n2-c1ccc(C#N)cc1
emission maximum / nm: 420
--
Compound string: COC(=O)[C@H](Cc1ccccc1)Nc1c(C(C)=O)c(=O)oc2cc(N(C)C)ccc12
emission maximum / nm: 449
--
Compound string: Cc1cc(C)c2c(c1)c1cc(C)cc(C)c1n2-c1ccc2c(c1)B(c1c(C(C)C)cc(C(C)C)cc1C(C)C)c1cc(-n3c4c(C)cc(C)cc4c4cc(C)cc(C)c43)ccc1N2c1ccccc1
emission maximum / nm: 453.4
--
Compound string: O=C1/C(=C\c2ccc(N(c3ccccc3)c3ccccc3)cc2)S(=O)(=O)c2ccccc21
emission maximum / nm: 631
--
Compound string: CCCCN(c1ccccc1)c1ccc2c(c1)C(CC)(CC)c1cc(/C=C/c3ccc(/C=C(\C#N)C(=O)O)s3)ccc1-2
emission maximum / nm: 595
--
Compound string: COC(=O)c1nc2c(N(C)C)nc(N(C)C)nc2n1Cc1ccccc1
emission maximum / nm: 409
--
Compound string: O=Cc1ccc(-c2cccc(-c3nc4ccccc4s3)c2O)s1
emission maximum / nm: 566
--
Compound string: COc1ccc(-c2nnc(-c3cc(-n4c5ccccc5c5ccccc54)c(-n4c5ccccc5c5ccccc54)cc3-c3nnc(-c4ccc(OC)cc4)o3)o2)cc1
emission maximum / nm: 487.92
--
Compound string: CCOc1cc2c(cc1/C=C/C(=C(C#N)C#N)c1ccccc1)c1ccccc1n2CC
emission maximum / nm: 558
--
Compound string: COc1ccc(C#Cc2nc3ccccc3nc2-c2ccn(-c3ccccc3)c2)cc1
emission maximum / nm: 474
--
Compound string: c1ccc2c(c1)ccc1ccc3ccc4ccc5ccccc5c4c3c12
emission maximum / nm: 476
--
Compound string: O=P(c1ccccc1)(c1ccccc1)c1cccc(-c2nc3ccccc3n2-c2cccc(P(=O)(c3ccccc3)c3ccccc3)c2)c1
emission maximum / nm: 376
--
Compound string: COc1cc(N(c2ccccc2)c2ccc(C=C(C#N)C#N)c(OC)c2)ccc1C=C(C#N)C#N
emission maximum / nm: 534
--
Compound string: CN(C)c1ccc(-c2nc(-c3ccc(N(C)C)cc3)c3ccccc3n2)cc1
emission maximum / nm: 530
--
Compound string: COC(=O)c1ccc(C(=O)NC(C)(C)C)c2c1ccc1c3ccccc3c3ccccc3c12
emission maximum / nm: 448
--
Compound string: CC(C)(C)c1ccc2c(c1)c1cc(C(C)(C)C)ccc1n2-c1cc(-n2c3ccc(C(C)(C)C)cc3c3cc(C(C)(C)C)ccc32)c(-n2c3ccc(C(C)(C)C)cc3c3cc(C(C)(C)C)ccc32)c(C#N)c1-n1c2ccc(C(C)(C)C)cc2c2cc(C(C)(C)C)ccc21
emission maximum / nm: 472.48
--
Compound string: CCCCCCOc1cc(/C=C/c2cc(OCCCCCC)c(/C=C/c3cc(OCCCCCC)c(C=O)cc3OCCCCCC)cc2OCCCCCC)c(OCCCCCC)cc1C=O
emission maximum / nm: 521
--
Compound string: COc1cc(-c2nc3c4cccnc4c4ncccc4c3[nH]2)c(OC)cc1/C=C/c1nc2ccccc2[nH]1
emission maximum / nm: 452
--
Compound string: CN(C)c1ccc(/C=C/c2nc3cc(Br)ccc3nc2-c2ccccc2)cc1
emission maximum / nm: 601
--
Compound string: CCCCCCNC(=O)c1sc(-c2ccc(-c3cc(-c4ccc(C(C)(C)C)cc4)c(C(=O)NCCCCCC)s3)s2)cc1-c1ccc(C(C)(C)C)cc1
emission maximum / nm: 448
--
Compound string: CCCCCCc1ccc(-n2c3[n+](c4c5ccccc5c5ccccc5c42)[B-](C)(C)c2ccc4ccccc4c2-3)cc1
emission maximum / nm: 435

====

experiment: solvent given as SMILES; conditions: in CO
Measured property: emission maximum (nm)

Compound: COc1ccccc1C1=C2C(C)=CC(C)=[N+]2[B-](F)(F)n2c(C)cc(C)c21
Unit label: nm
emission maximum: 514
--
Compound: COC1(OC)C2(Cl)c3nc4cc(-c5cccs5)ccc4nc3C1(Cl)C1C[C@H]3[C@@H](CC12)C1(Cl)c2nc4ccc(-c5cccs5)cc4nc2C3(Cl)C1(OC)OC (stereo partly specified)
Unit label: nm
emission maximum: 491
--
Compound: CC(C)(C)c1ccc2c(c1)c1cc(C(C)(C)C)ccc1n2-c1ccc(C#Cc2cccc(C#Cc3ccc(-n4c5ccc(C(C)(C)C)cc5c5cc(C(C)(C)C)ccc54)cc3)c2)cc1
Unit label: nm
emission maximum: 426
--
Compound: CCN1C(=CC2=C([O-])C(=Cc3sc4ccccc4[n+]3CC)C2=O)Sc2ccccc21
Unit label: nm
emission maximum: 663
--
Compound: Cc1n[nH]c2c1C(c1ccc([N+](=O)[O-])cc1)C(C#N)=C(N)O2 (stereo unspecified)
Unit label: nm
emission maximum: 417
--
Compound: COCCOCCOCCOc1cc(C=O)c(OCCOCCOCCOC)cc1C=O
Unit label: nm
emission maximum: 467

====

test: solvent given as SMILES; details: in C1CCOC1
Measured property: emission maximum (nm)

Compound: Cc1cc(C)c2c(c1)c1cc(C)cc(C)c1n2-c1ccc2c(c1)B(c1c(C(C)C)cc(C(C)C)cc1C(C)C)c1cc(-n3c4c(C)cc(C)cc4c4cc(C)cc(C)c43)ccc1N2c1ccccc1
emission maximum, nm: 447.96
--
Compound: COc1ccc(/C=N/c2cc(C(C)C)c(O)cc2C)cc1
emission maximum, nm: 408
--
Compound: C1=C(c2ccccc2)C(c2ccccc2)C(c2ccccc2)=C1
emission maximum, nm: 385
--
Compound: COc1ccc2c(=O)c3c([nH]c2c1)-c1cc(Cl)ccc1NC3(C)C
emission maximum, nm: 489
--
Compound: CC(C)(C)c1ccc2c(c1)c1cc(C(C)(C)C)ccc1n2-c1ccc(-c2nc(-c3ccc(-n4c5ccc(C(C)(C)C)cc5c5cc(C(C)(C)C)ccc54)cc3)nc(-c3ccc(P(=O)(c4ccccc4)c4ccccc4)cc3)n2)cc1
emission maximum, nm: 501.73
--
Compound: COc1ccc(-c2c3ccc([nH]3)c3nc(c(-c4ccc(C#N)cc4)c4ccc([nH]4)c4ccc([nH]4)c(-c4ccc(OC)cc4)c4ccc2o4)C=C3)cc1
emission maximum, nm: 736
--
Compound: CC1=N/C(=C\c2cccc(N(C)C)c2)C(=O)N1CCO
emission maximum, nm: 585
--
Compound: CCc1ccc(-c2nc(-c3ccc(-n4c5ccccc5c5ccccc54)cc3)cc(-c3ccc(-n4c5ccccc5c5ccccc54)cc3)n2)cc1
emission maximum, nm: 436
--
Compound: COc1cc(-c2nc3c4cccnc4c4ncccc4c3[nH]2)c(OC)cc1/C=C/c1nc2ccccc2[nH]1
emission maximum, nm: 443
--
Compound: CCN1c2ccc(/C=N/Nc3ccccn3)cc2Sc2cc(-c3cccc4ccccc34)ccc21
emission maximum, nm: 487
--
Compound: NS(=O)(=O)c1ccc(N2N=C(c3ccc(O)cc3)CC2c2ccc(Br)cc2)cc1 (centres undefined)
emission maximum, nm: 417
--
Compound: Cc1cccc(NC(=O)c2ccc(N(C)C)cc2)c1
emission maximum, nm: 518
--
Compound: O=C(N/N=C/c1ccccc1O)c1ccccc1
emission maximum, nm: 306
--
Compound: CCCCCCCCC1(CCCCCCCC)c2cc(C=O)ccc2-c2ccc(/C=C/c3ccc(N(c4ccccc4)c4ccccc4)cc3)cc21
emission maximum, nm: 451
--
Compound: Cc1n[nH]c2c1C(c1ccc([N+](=O)[O-])cc1)C(C#N)=C(N)O2 (centres undefined)
emission maximum, nm: 393
--
Compound: CC1=CC(c2ccc3cc(N(C)C)ccc3c2)=[O+][B-](F)(F)O1
emission maximum, nm: 566
--
Compound: CN(C)c1ccc(/C=C/c2ccnc(/C=C/c3ccc(N(C)C)cc3)n2)cc1
emission maximum, nm: 484
--
Compound: CCCCCCCCN1c2ccc(C#Cc3ccc(OC)cc3)cc2Sc2cc(C=O)ccc21
emission maximum, nm: 512
--
Compound: C[Si](C)(C)c1ccc(-c2ccc(-c3ccc(-c4ccc(-c5ccc([Si](C)(C)C)cc5)cc4)c4nsnc34)cc2)cc1
emission maximum, nm: 516
